Examples of molecules with documented TGI follow.
test system: OVCAR-3 ovarian; assay: NCI tumour cell line growth inhibition, 48 h

{"columns": ["Molecule", "Assayed System", "Observed Result"],
 "data": [
  ["Nc1ccc2c(c1)N(C(=O)c1cc3cc(NC(=O)c4cc5ccccc5o4)ccc3[nH]1)CC2CCl (stereo unspecified)", "OVCAR-3 ovarian", "0.56 µM"],
  ["O=c1cc(N2CCOCC2)[nH]c(=O)n1-c1ccc(F)cc1", "OVCAR-3 ovarian", "> 100 µM"],
  ["CCCN=C(N)NC#N", "OVCAR-3 ovarian", "> 100 µM"]
]}

Give a short answer stating reported TGI for `CS(=O)(=O)O[C@H]1CN2C[C@@H](O)[C@@H](O)[C@H]2[C@H]1CO` .
> 100 µM

Give a short answer stating reported TGI for `Cc1cc(C)n(C(=C(C(Cl)=C(Cl)Cl)[N+](=O)[O-])n2nc(C)cc2C)n1` .
10.4 µM

Give a short answer stating reported TGI for Oc1c(C2=NNC(c3ccc(Cl)cc3Cl)C2)ccc2ccccc12 (stereo unspecified) .
> 100 µM

----------
tested on: DMS 114 small cell lung; assay: NCI tumour cell line growth inhibition, 48 h
Examples of compounds with documented TGI follow.

Some solved entries appear below for comparison.
{"columns": ["Compound", "TGI"],
 "data": [
  ["COC(=O)c1cc2c(s1)C(=O)c1ccccc1-2", "> 100 µM"],
  ["N#CC(N)(C(=O)CCC(=O)Nc1cccc(Cl)c1)c1ccc(Cl)cc1 (stereo not given)", "> 100 µM"],
  ["COC1(OC)CC2C(=O)N(Cc3ccccc3)C1C(S(=O)(=O)c1ccccc1)C2S(=O)(=O)c1ccccc1 (stereo not given)", "16 µM"],
  ["CC1=C(C(=O)Nc2ccccc2)C(c2ccccc2)C(C(=O)Nc2ccccc2)=C(C)N1", "> 100 µM"],
  ["CC(=O)c1cccc(NC(=O)C(=O)NNc2n[nH]c(=S)n2N)c1", "3.93 µM"]
]}

Give a short answer stating reported TGI for Cc1ccc(NC(=O)C(=O)C(C(=O)c2ccc3ccccc3c2)C2OC(=O)c3ccccc32)cc1C (stereo not given) .
41.3 µM

Give a short answer stating reported TGI for `CC(C)c1ccccc1NC(=O)CCc1n[nH]c(=S)o1` .
> 100 µM

Give a short answer stating reported TGI for `[N-]=[N+]=NC12CC3C4CC5CC3C(C1)C(C5)C4C2` .
> 100 µM

Give a short answer stating reported TGI for `O=C(O)c1ccc(Nc2c3ccccc3nc3ccccc23)cc1` .
> 100 µM

Give a short answer stating reported TGI for COc1ccc(C2C(Cl)C(=O)N2n2cnc3ccccc3c2=O)cc1 (stereo not given) .
> 100 µM

----------
test system: NCI-H226 lung; test: NCI tumour cell line growth inhibition, 48 h
Examples of molecules with documented TGI follow.

{"columns": ["Molecule", "Quantity Name", "Observed Result"],
 "data": [
  ["COc1ccc(N2C(=O)/C(=C(\\C)c3cc4ccccc4oc3=O)N=C2c2cc([N+](=O)[O-])ccc2Cl)cc1", "TGI", "> 100 µM"],
  ["CCCCCCCCCCCCOC1C(C(COC2OC(C3COC(C)(C)O3)C3OC(C)(C)OC23)NC(=O)Nc2ccc(C(=O)O)cc2)OC2OC(C)(C)OC21 (centres undefined)", "TGI", "19.2 µM"],
  ["CCN(CC)CCC(=O)/C=C/c1ccccc1", "TGI", "44.9 µM"]
]}

Give a short answer stating reported TGI for CCOC(=O)C1=C(C)N(Cc2ccc(Cl)cc2Cl)C2(O)C=CC(=O)C3C(=O)N(c4ccccc4)C(=O)C132 (centres undefined) .
3.09 µM

----------
system: SNB-78 CNS; experiment: NCI tumour cell line growth inhibition, 48 h
Quantity Name: TGI

Give a short answer stating reported TGI for COc1ccc(C2C(Cl)C(=O)N2n2cnc3ccccc3c2=O)cc1 (stereo not drawn) .
> 100 µM

Give a short answer stating reported TGI for COc1ccc(C(=O)C(c2ccc(OC)cc2)C2(O)C(=O)Nc3ccc([N+](=O)[O-])cc32)cc1 (stereo not drawn) .
> 100 µM

Give a short answer stating reported TGI for `O=C(O)c1ccc(Nc2c3ccccc3nc3ccccc23)cc1` .
> 100 µM

----------
Examples of compounds with documented TGI follow.
test system: UACC-62 melanoma; test: NCI tumour cell line growth inhibition, 48 h

Some solved entries appear below for comparison.
{"columns": ["Compound", "TGI"],
 "data": [
  ["O=Cc1cn(CCCCCCCCCCCCn2cc(C=O)c3ccccc32)c2ccccc12", "> 100 µM"],
  ["CCn1c(-c2nonc2N)nc2c(C#CC(C)(C)O)nc(OC[C@H](N)c3ccccc3)cc21", "8.08 µM"],
  ["COc1ccc(N2C(=O)/C(=C(\\C)c3cc4ccccc4oc3=O)N=C2c2cc([N+](=O)[O-])ccc2Cl)cc1", "> 100 µM"],
  ["CN(CC(=O)O)c1ncc2c(n1)-c1ccccc1SC2", "> 100 µM"]
]}

Check UACC-62 melanoma data and give TGI for `Cc1nn(-c2ccccc2)c2nc(N3CCOCC3)nnc12` .
> 100 µM

Check UACC-62 melanoma data and give TGI for `COc1ccc(N2C(=O)C(=O)N(c3ccccc3[N+](=O)[O-])C2=S)cc1` .
32.5 µM

Check UACC-62 melanoma data and give TGI for O=C(OC(CNc1cc(=O)n(Cc2ccccc2)c(=O)n1Cc1ccccc1)CN1CCCC1)c1ccccc1 (centres undefined) .
> 100 µM

Check UACC-62 melanoma data and give TGI for `COc1cc2cc3c4c(cc(OC)c(OC)c4c2cc1OC)CCN3C(=O)OCCN1CCNCC1` .
28.1 µM

Check UACC-62 melanoma data and give TGI for `CC(=O)c1ccc(NCc2cc(O)ccc2O)cc1` .
29.8 µM

Check UACC-62 melanoma data and give TGI for CNc1ccc(C(=O)CC(O)CCC(C)C2OC(=O)CC(O)CC(=O)CC(O)CC(O)CC(O)CC(O)CC3(O)CC(O)C(C(=O)NCCN(C)C)C(CC(OC4OC(C)C(O)C(NC(=O)CN5CCN(C)CC5)C4O)/C=C/C=C/C=C/C=C\C=C/C=C/C=C/C2C)O3)cc1 (centres undefined) .
> 100 µM

Check UACC-62 melanoma data and give TGI for `N#CC(=C1C=CC(=NO)C=C1)c1ccccc1` .
7.41 µM

Check UACC-62 melanoma data and give TGI for O=c1cnn(C2OC(C(O)CO)C(O)C2O)c(=O)[nH]1 (centres undefined) .
> 100 µM

Check UACC-62 melanoma data and give TGI for `CCOC(=O)CCCn1c(SC)nc2[nH]cc(-c3ccccc3)c2c1=O` .
25.1 µM

Check UACC-62 melanoma data and give TGI for `CN1CCN(C(=O)CCNC(=O)Cc2ccc(C(=O)c3ccccc3)cc2)CC1` .
> 100 µM

Check UACC-62 melanoma data and give TGI for COc1ccc(C(C)=O)cc1N1C(=O)C2C(C1=O)C1(c3ccccc3)C(=O)C2(c2ccccc2)C(c2ccc(C)cc2)=C1c1ccc(C)cc1 (centres undefined) .
> 100 µM

Check UACC-62 melanoma data and give TGI for COC(=O)c1cc2c3c(ccc2[nH]1)N(C(=O)c1cc2cc(OC)c(OC)c(OC)c2[nH]1)CC3CCl (centres undefined) .
> 100 µM

Check UACC-62 melanoma data and give TGI for O=C(NCC(=O)N1CCCC1C(=O)OC(=O)C1CCCN1C(=O)CNC(=O)OCc1ccccc1)OCc1ccccc1 (centres undefined) .
34.6 µM

Check UACC-62 melanoma data and give TGI for CCN(CC)c1ccc2c(c1)OC(N)=C(C#N)C2c1cc(OC)c2c(c1)OCO2 (centres undefined) .
13.5 µM

Check UACC-62 melanoma data and give TGI for CCN1CCN(C(c2ccc(C(F)(F)F)cc2)c2ccc3cccnc3c2O)CC1 (centres undefined) .
10.4 µM

Check UACC-62 melanoma data and give TGI for Cn1c2c(c3ccccc31)C1CCCCCCC1C1C(=O)OC(=O)C21 (centres undefined) .
> 100 µM

Check UACC-62 melanoma data and give TGI for COc1ccc(N2C(=O)CC(C3CC(C(C)(C)C)CCC3=O)C2=O)cc1 (centres undefined) .
> 100 µM

Check UACC-62 melanoma data and give TGI for `C=CCCCCC/C=C\[C@H](O)C#CC#C/C=C/CO` .
> 100 µM

Check UACC-62 melanoma data and give TGI for `O=C(Nc1ccc(Cl)cc1F)c1ccccc1O` .
9.24 µM

Check UACC-62 melanoma data and give TGI for COC(=O)CCC1=CCC2(SC)C(=O)Nc3cccc1c32 (centres undefined) .
> 100 µM

Check UACC-62 melanoma data and give TGI for `[Cl][Hg][c]1cc(Br)cc(Br)c1` .
3.42 µM

Check UACC-62 melanoma data and give TGI for `CC1(C)CC(=O)c2[nH]c3ccccc3c2CC(=O)NCCc2cn1cn2` .
> 100 µM

Check UACC-62 melanoma data and give TGI for `CN(C(=O)C1=CCC2(CC1)OCCO2)c1ccccc1OS(=O)(=O)C(F)(F)F` .
> 100 µM

Check UACC-62 melanoma data and give TGI for O=C(O)C1C2C=CC(O2)C1C(=O)NCc1ccccn1 (centres undefined) .
> 100 µM
